System: SARS-COV-2 RBD extracellular domain expressed with a C-terminal mouse IgG2a (SARS-COV-2 RBD-mFc) (SARS-CoV-2)
Measurement Description: SPR, captured mAb, RBD-mFc in solution, 37 C

[
  {
    "Binder": "mAb10935 (antibody, V domains shown) VH: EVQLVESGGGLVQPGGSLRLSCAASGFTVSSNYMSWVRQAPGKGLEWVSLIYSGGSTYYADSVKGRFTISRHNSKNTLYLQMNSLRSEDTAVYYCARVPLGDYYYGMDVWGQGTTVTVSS VL: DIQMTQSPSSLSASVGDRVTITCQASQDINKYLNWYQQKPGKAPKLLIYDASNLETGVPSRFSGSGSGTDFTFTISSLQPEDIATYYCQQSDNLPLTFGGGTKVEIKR",
    "kon": "5.68e+06 M⁻¹ s⁻¹"
  },
  {
    "Binder": "mAb10971 (antibody, V domains shown) VH: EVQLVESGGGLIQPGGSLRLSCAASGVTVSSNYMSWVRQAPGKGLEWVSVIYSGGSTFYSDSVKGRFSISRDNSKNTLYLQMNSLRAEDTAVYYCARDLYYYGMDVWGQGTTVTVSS VL: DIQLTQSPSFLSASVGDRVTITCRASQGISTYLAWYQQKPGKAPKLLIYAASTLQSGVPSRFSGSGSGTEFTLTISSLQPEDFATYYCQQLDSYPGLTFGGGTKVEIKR",
    "kon": "2.37e+06 M⁻¹ s⁻¹"
  }
]
